These data points were gathered from PubChem BioAssay AID1902.

# test target: S. pyogenes SKKanGAS, kanamycin survival, BacTiterGlo, 6 h
# assay name: S. pyogenes SKKanGAS kanamycin growth inhibitors – SKKanGAS strain, luminescence, dose confirmation, streptokinase promoter inhibitor project, dose response (AID 1902);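 also: lower survival reflects blocked streptokinase promoter driving kanamycin resistance gene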
Activity calls are given as the source filed them.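 The calls were made as follows: active = EC50 no more than a set limit of log units above the highest dose; inactive = the rest.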
Would you mind answering with one of these outcomes? label 1 = active, label 0 = inactive

INPUT: Hi, do you know how Cc1ccccc1-n1cnc2cc(NCc3cccs3)ccc21 came out in this test?
OUTPUT: label 1

INPUT: For O=C(NC12CC3CC(CC(C3)C1)C2)c1ccc([N+](=O)[O-])o1 , which call appears in the assay record?
OUTPUT: label 1

INPUT: Dear colleague, could you share the recorded outcome for Cc1cc(/C=N/n2cnnc2)c(C)n1-c1ccc(OCc2ccc(Cl)cc2Cl)cc1 when you have a moment?
OUTPUT: label 1

INPUT: // return assay outcome for Cc1ccc(C(=O)/C=C/C(=O)c2ccc(C)cc2)cc1
OUTPUT: label 1

INPUT: Test call, this compound: CCOC(=O)c1cccnc1SCC(=O)NC(C)CC (configuration not stated)
OUTPUT: label 0

INPUT: Fill in: this test's call for Cc1cc(NC(c2ccc(Cl)cc2)c2ccc3cccnc3c2O)no1 (configuration not stated) is ___
OUTPUT: label 1

INPUT: For Cc1cc(N2CCN(c3ccccc3Cl)CC2)n2cc(-c3ccccc3)nc2n1 , what call appears in the results of this test?
OUTPUT: label 1

INPUT: Give the logged outcome of this assay for the following compound: O=C(Nc1nc(-c2ccccn2)cs1)Nc1ccc(F)cc1F
OUTPUT: label 1

INPUT: What classification did CCOc1ccccc1C(=O)OCC(=O)Nc1nnc(-c2ccccc2)o1 end up with in this test?
OUTPUT: label 1

INPUT: What did the test return for O=[N+]([O-])c1cc(Br)c(O)c(/C=N/Nc2nnnn2-c2cccc3ccccc23)c1 ?
OUTPUT: label 1

INPUT: Please let me know the test result on file for Cc1nc(NS(=O)(=O)c2ccc(Cl)s2)c2c3c(sc2n1)CCCC3 .
OUTPUT: label 1

INPUT: Check the results log: what was the call for CC(C)=CCCC1(C)C=Cc2c(c(C)cc3c2[nH]c2cc(O)ccc23)O1 (configuration not stated) ?
OUTPUT: label 1

INPUT: What did this assay record as the result for O=C(NC(=S)NNC(=O)[C@H]1C[C@@H]1c1ccccc1)c1cccc(F)c1 ?
OUTPUT: label 1

INPUT: What outcome does the record of this test show for O=C(Nc1cccc(-c2ccc(N3CCOCC3)nn2)c1)c1ccccc1Cl ?
OUTPUT: label 0

INPUT: Please let me know the test result on file for C=CCn1c(O)c(C(C)=Nc2ccc(N(CC)CC)cc2)c(=O)[nH]c1=O .
OUTPUT: label 1

INPUT: What did this assay record as the result for COC12C(COC(N)=O)C3=C(C(=O)C(C)=C(N)C3=O)N1CC1C2N1C (configuration not stated) ?
OUTPUT: label 1

INPUT: Record lookup: outcome of this test for CC(OC(=O)CC1CCCC1)C(=O)Nc1ccc(S(N)(=O)=O)cc1 (configuration not stated) ?
OUTPUT: label 0

INPUT: What outcome does the record of this test show for CCC(C)c1ccccc1NS(=O)(=O)c1cnn(CC)c1 (configuration not stated) ?
OUTPUT: label 0

INPUT: Assay result, entry COc1ccc(NS(=O)(=O)c2cccc(NC(=O)CCC(=O)c3ccc(Cl)cc3)c2)cc1 — outcome?
OUTPUT: label 1

INPUT: Just curious, what result did C/C(Cl)=C\Cn1c(O)c(N=NC(N)=S)c2cc(Br)ccc21 get here?
OUTPUT: label 1

INPUT: Outcome? Nc1nc(-c2ccccn2)nc(N)c1Cc1ccccc1F
OUTPUT: label 1

INPUT: Give the logged outcome of this assay for the following compound: COc1cccc(/C=N/Nc2ccc([N+](=O)[O-])cn2)c1O
OUTPUT: label 1
